Molecular target: SMARCA4-HiBiT (Homo sapiens)
Construct: SMARCA4-HiBiT knock-in Hela monoclonal cell (CS3023226); host or cells: HeLa monoclonal knock-in line (CRISPR HiBiT knock-in at the endogenous locus, heterozygous)
Sequence (P51532 whole entry): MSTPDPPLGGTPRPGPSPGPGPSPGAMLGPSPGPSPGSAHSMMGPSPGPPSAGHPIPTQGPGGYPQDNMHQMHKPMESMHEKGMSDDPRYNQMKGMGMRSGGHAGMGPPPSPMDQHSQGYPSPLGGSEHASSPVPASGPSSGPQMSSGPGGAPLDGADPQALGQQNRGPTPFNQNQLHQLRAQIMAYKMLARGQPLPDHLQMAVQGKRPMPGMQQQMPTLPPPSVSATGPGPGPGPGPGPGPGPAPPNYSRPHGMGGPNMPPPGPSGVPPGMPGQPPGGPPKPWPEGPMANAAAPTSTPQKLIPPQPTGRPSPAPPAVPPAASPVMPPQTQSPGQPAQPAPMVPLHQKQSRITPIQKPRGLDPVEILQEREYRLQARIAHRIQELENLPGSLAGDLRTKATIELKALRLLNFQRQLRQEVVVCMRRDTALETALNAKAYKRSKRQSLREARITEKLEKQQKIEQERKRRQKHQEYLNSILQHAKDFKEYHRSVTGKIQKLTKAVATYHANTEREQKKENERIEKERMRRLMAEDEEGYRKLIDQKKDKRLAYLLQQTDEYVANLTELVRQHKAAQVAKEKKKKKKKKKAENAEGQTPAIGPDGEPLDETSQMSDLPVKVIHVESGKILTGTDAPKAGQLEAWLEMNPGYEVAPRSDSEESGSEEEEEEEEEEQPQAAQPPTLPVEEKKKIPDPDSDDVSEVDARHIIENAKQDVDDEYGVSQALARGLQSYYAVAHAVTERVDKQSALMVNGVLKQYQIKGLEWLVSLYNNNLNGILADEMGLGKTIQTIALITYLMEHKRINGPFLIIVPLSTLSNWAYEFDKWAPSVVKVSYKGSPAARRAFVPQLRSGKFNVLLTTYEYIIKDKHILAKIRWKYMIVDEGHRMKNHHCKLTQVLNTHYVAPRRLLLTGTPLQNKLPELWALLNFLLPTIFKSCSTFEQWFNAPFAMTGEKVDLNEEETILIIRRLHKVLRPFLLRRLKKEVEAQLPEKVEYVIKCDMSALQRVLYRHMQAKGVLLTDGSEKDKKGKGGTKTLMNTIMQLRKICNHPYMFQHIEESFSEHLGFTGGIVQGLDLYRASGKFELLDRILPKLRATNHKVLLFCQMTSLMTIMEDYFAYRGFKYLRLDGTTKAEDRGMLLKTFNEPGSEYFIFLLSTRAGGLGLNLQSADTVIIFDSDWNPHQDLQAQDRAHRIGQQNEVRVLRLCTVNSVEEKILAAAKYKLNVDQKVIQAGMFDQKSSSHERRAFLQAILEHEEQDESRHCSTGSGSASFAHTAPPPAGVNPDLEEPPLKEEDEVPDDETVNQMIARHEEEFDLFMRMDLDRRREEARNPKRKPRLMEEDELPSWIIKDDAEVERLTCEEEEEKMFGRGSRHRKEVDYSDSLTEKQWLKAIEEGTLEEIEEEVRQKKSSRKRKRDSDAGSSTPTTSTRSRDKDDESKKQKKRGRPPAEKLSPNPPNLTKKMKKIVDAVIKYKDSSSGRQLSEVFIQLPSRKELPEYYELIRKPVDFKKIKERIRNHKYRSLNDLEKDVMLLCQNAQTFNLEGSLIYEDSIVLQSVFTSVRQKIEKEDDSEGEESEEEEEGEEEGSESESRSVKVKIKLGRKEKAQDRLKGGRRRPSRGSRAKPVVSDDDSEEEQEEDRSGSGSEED
Experiment: SMARCA4 HiBiT degradation assay in HeLa cells
Assay type: cell-based
Settings: HeLa, 18 hours incubation, read-out: HeLa-HiBit-SM4 Dmax (%)
readout-name: Dmax

Observe how each entry below is paired with its result.
[
  {
    "compound": "O=C1CCC(N2C(=O)c3ccc(N4CCC(CN5CCC(S(=O)(=O)N6CCN7c8cc(-c9ccccc9O)nnc8NC[C@H]7C6)CC5)CC4)cc3C2=O)C(=O)N1 (some centres unmarked)",
    "Dmax": "50 to 75%"
  },
  {
    "compound": "O=C1CCC(N2Cc3cc(CN4CCC(N5CCC(N6CCN7c8cc(-c9ccccc9O)nnc8NC[C@H]7C6)CC5)CC4)ccc3C2=O)C(=O)N1 (some centres unmarked)",
    "Dmax": "> 85%"
  },
  {
    "compound": "O=C1CCC(N2C(=O)c3ccc(N4C[C@@H]5CN(C6CCC(C(=O)N7CCN8c9cc(-c%10ccccc%10O)nnc9NC[C@H]8C7)CC6)C[C@H]5C4)cc3C2=O)C(=O)N1 (some centres unmarked)",
    "Dmax": "> 85%"
  },
  {
    "compound": "O=C1CCC(N2C(=O)c3ccc(N4CCC(CN5CCN(C(=O)N6CCN7c8cc(-c9ccccc9O)nnc8NC[C@H]7C6)CC5)C(F)(F)C4)cc3C2=O)C(=O)N1 (some centres unmarked)",
    "Dmax": "50 to 75%"
  }
]

For the compound shown here, CN1CCN(c2ccc3c(c2)C(=O)N(C2CCC(=O)NC2=O)C3=O)CC1CN1C[C@@H]2[C@H](C1)[C@H]2CN1CCN2c3cc(-c4ccccc4O)nnc3NC[C@H]2C1 (some centres unmarked) , give the reported Dmax.
75 to 85%

----------
DC50 reference
Biological target: SMARCA4-HiBiT (Homo sapiens)
Construct: SMARCA4-HiBiT knock-in Hela monoclonal cell (CS3023226); host or cells: HeLa monoclonal knock-in line (CRISPR HiBiT knock-in at the endogenous locus, heterozygous)
Experiment: SMARCA4 HiBiT degradation assay in HeLa cells
Type: cell-based
Conditions: 18 hours incubation, read-out: HeLa-HiBit-SM4 DC50

[
  {
    "compound": "O=C1CCC(N2C(=O)c3ccc(N4CC[C@H](CN5C[C@@H]6[C@H](C5)[C@H]6CN5CCN6c7cc(-c8ccccc8O)nnc7NC[C@H]6C5)[C@@H](F)C4)cc3C2=O)C(=O)N1 (stereo partly drawn) [Example 194]",
    "recorded-result": "< 10 nM"
  },
  {
    "compound": "O=C1CCC(N2Cc3cc(C4CCN(C5CCN(CCN6CCN7c8cc(-c9ccccc9O)nnc8NC[C@H]7C6)CC5)CC4)ccc3C2=O)C(=O)N1 (stereo partly drawn)",
    "recorded-result": "< 10 nM"
  }
]

Which DC50 is reported with SMARCA4-HiBiT (Homo sapiens) for this entry: CC1CN(CC2CCN(c3ccc4c(c3)C(=O)N(C3CCC(=O)NC3=O)C4)CC2)CCN1C(=O)N1CCN2c3cc(-c4ccccc4O)nnc3NC[C@H]2C1 (stereo partly drawn) ?
< 10 nM

Try O=C1CCC(NC(=O)c2ccc(N3CCC(CN4CCC(N5CCN6c7cc(-c8ccccc8O)nnc7NC[C@H]6C5)CC4)CC3)cn2)C(=O)N1 (stereo partly drawn) next.
< 10 nM

How about O=C1CCC(N2C(=O)c3ccc(N4CCC(NC5CCN(C(=O)N6CCN7c8cc(-c9ccccc9O)nnc8NC[C@H]7C6)CC5)CC4)cc3C2=O)C(=O)N1 (stereo partly drawn) ?
10 to 100 nM

Now the same for O=C1CCC(N2Cc3cc(N4CCC(CN5CCC(CN6CCN7c8cc(-c9ccccc9O)nnc8NC[C@H]7C6)CC5)CC4)c(F)cc3C2=O)C(=O)N1 (stereo partly drawn)
< 10 nM

Now the same for O=C1CCC(N2Cc3ccc(N4CCC(CN5CCN(C(=O)N6CCN7c8cc(-c9ccccc9O)nnc8NC[C@H]7C6)C(CO)C5)CC4)cc3C2=O)C(=O)N1 (stereo partly drawn)
10 to 100 nM

What would you report for O=C1CCC(n2ccc3cc(N4CCC(CN5CCC(N6CCN7c8cc(-c9ccccc9O)nnc8NC[C@H]7C6)CC5)CC4)ccc3c2=O)C(=O)N1 (stereo partly drawn) ?
< 10 nM

Another: CC1(CN2CCC(CN3CCN4c5cc(-c6ccccc6O)nnc5NC[C@H]4C3)CC2)CCN(c2ccc3c(c2)C(=O)N(C2CCC(=O)NC2=O)C3=O)CC1 (stereo partly drawn)
< 10 nM

Follow-up item: O=C1CCC(N2Cc3cc(C4CCN(C5CCCN(CCCN6CCN7c8cc(-c9ccccc9O)nnc8NC[C@H]7C6)C5)CC4)ccc3C2=O)C(=O)N1 (stereo partly drawn)
< 10 nM

Let us now turn to CN(C1CCN(CC2CCN(c3ccc4c(c3)C(=O)N(C3CCC(=O)NC3=O)C4=O)CC2)CC1)C1C[C@@H]2CNc3nnc(-c4ccccc4O)cc3N2C1 (stereo partly drawn)
< 10 nM

Also CC1CC(CN2CCN3c4cc(-c5ccccc5O)nnc4NC[C@H]3C2)CCN1CC1CCN(c2ccc3c(c2)C(=O)N(C2CCC(=O)NC2=O)C3=O)CC1 (stereo partly drawn) , if possible.
< 10 nM

----------
Biological target: SMARCA2-HiBiT (Homo sapiens)
Construct: SMARCA2-HiBiT knock-in Hela monoclonal cell (CS302366); host or cells: HeLa monoclonal knock-in line (CRISPR HiBiT knock-in at the endogenous locus, heterozygous)
Sequence (P51531 whole entry): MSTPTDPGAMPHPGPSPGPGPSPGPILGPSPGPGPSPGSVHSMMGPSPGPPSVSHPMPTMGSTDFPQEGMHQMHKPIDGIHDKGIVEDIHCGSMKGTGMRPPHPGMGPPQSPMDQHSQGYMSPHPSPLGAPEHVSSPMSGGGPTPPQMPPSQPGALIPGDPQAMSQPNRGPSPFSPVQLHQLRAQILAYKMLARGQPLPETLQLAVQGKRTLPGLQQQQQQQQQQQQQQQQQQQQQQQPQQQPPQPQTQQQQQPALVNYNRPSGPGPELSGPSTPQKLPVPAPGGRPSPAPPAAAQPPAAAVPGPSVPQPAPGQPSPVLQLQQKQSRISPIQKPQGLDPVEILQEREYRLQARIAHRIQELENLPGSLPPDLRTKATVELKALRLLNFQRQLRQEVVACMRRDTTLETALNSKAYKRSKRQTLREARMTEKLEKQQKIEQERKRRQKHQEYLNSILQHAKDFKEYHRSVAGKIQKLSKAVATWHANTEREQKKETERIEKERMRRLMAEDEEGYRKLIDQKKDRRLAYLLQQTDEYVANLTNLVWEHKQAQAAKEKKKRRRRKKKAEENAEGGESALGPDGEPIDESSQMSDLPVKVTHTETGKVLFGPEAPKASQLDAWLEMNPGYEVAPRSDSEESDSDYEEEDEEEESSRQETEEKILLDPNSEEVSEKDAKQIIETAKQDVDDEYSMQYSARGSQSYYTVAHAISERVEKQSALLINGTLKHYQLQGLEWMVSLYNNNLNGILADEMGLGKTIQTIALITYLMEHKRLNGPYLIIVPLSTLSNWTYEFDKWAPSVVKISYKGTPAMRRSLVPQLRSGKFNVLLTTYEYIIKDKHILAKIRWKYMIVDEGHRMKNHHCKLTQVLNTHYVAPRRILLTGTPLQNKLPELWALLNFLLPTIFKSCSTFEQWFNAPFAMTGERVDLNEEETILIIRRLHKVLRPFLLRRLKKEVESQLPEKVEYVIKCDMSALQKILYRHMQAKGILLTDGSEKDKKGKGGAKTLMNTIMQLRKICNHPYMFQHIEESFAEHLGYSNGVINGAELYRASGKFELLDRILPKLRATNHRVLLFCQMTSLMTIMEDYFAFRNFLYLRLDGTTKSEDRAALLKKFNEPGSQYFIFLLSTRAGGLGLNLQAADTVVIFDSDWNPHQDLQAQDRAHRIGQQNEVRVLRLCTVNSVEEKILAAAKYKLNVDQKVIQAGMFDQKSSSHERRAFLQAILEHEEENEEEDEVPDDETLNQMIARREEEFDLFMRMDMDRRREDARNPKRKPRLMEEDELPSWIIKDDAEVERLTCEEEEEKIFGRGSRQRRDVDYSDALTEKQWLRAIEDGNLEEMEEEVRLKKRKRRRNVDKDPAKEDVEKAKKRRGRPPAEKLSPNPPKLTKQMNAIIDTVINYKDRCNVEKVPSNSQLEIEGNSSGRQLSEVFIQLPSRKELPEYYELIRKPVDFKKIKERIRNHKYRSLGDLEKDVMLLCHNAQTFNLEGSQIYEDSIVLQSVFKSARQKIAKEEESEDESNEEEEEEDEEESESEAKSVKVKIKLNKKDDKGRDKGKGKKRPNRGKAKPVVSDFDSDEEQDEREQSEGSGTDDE
Experiment: SMARCA2 HiBiT degradation assay in HeLa cells
Format: cell-based
Settings: HeLa, 18 hours incubation, read-out: HeLa-HiBit-SM2 Dmax (%)
Description: HiBiT peptide knock-in of SMARCA2 in LgBiT expressing HEK293T cells was performed by CRISPR-mediated tagging system as described Promega. The homozygous HiBiT knock-in on c-terminus SMARCA2 was confirmed by sanger sequence. SMARCA2-HiBiT knock-in Hela monoclonal cell (CS302366) and SMARCA4-HiBiT knock-in Hela monoclonal cell (CS3023226) were purchased from Promega. The heterozygous HiBiT-knock-in was confirmed by sanger sequence in both SMARCA2-HiBiT and SMARCA4-HiBiT monoclonal cells. […]
readout-name: Dmax

[
  {
    "compound": "O=C1CCC(N2Cc3cc(N4CCO[C@H](CN5C[C@@H]6[C@H](C5)[C@H]6CN5CCN6c7cc(-c8ccccc8O)nnc7NC[C@H]6C5)C4)ccc3C2=O)C(=O)N1 (stereo partly shown) [Example 268]",
    "experimental-system": "SMARCA2-HiBiT (Homo sapiens)",
    "Dmax": "75 to 85%"
  },
  {
    "compound": "CC(C1CCN(CC2CCN(c3ccc4c(c3)C(=O)N(C3CCC(=O)NC3=O)C4=O)CC2)CC1)N1CCN2c3cc(-c4ccccc4O)nnc3NC[C@H]2C1 (stereo partly shown) [Example 32]",
    "experimental-system": "SMARCA2-HiBiT (Homo sapiens)",
    "Dmax": "> 85%"
  },
  {
    "compound": "O=C1CCC(N2C(=O)c3ccc(N4CCC(O)(CN5C[C@@H]6[C@@H](CN7CCN8c9cc(-c%10ccccc%10O)nnc9NC[C@H]8C7)[C@@H]6C5)CC4)cc3C2=O)C(=O)N1 (stereo partly shown) [Example 47]",
    "experimental-system": "SMARCA2-HiBiT (Homo sapiens)",
    "Dmax": "> 85%"
  },
  {
    "compound": "C[C@H]1CN2c3cc(-c4ccccc4O)nnc3NC[C@H]2CN1C[C@H]1[C@@H]2CN(CC3CCN(c4ccc5c(c4)C(=O)N(C4CCC(=O)NC4=O)C5)CC3)C[C@@H]21 (stereo partly shown) [Example 54]",
    "experimental-system": "SMARCA2-HiBiT (Homo sapiens)",
    "Dmax": "75 to 85%"
  },
  {
    "compound": "O=C1CCC(N2C(=O)c3ccc(N4CC5(CC(N6C[C@@H]7[C@@H](CN8CCN9c%10cc(-c%11ccccc%11O)nnc%10NC[C@H]9C8)[C@@H]7C6)C5)C4)cc3C2=O)C(=O)N1 (stereo partly shown) [Example 259]",
    "experimental-system": "SMARCA2-HiBiT (Homo sapiens)",
    "Dmax": "> 85%"
  }
]

Given the entry CCC1Nc2nnc(-c3ccccc3O)cc2N2CCN(CC3CCN(CC4CCN(c5ccc6c(c5)C(=O)N(C5CCC(=O)NC5=O)C6=O)CC4)CC3)CC12 (stereo not shown) [Example 128] , report its measured Dmax.
> 85%

And what about the compound O=C1CCC(N2C(=O)c3ccc(N4CC(CN5CCC(CN6CCN7c8cc(-c9ccccc9O)nnc8NC[C@H]7C6)CC5)C4)cc3C2=O)C(=O)N1 (stereo partly shown) [Example 247] ?
> 85%

Input O=C1CCC(N2C(=O)c3ccc(N4CCC(CN5CC6COCC(C5)C6CN5CCN6c7cc(-c8ccccc8O)nnc7NC[C@H]6C5)CC4)cc3C2=O)C(=O)N1 (stereo partly shown) [Example 132]
> 85%

Thanks! And O=C1CCC(N2C(=O)c3ccc(N4CCC(N5CCN6c7cc(-c8ccccc8O)nnc7NC[C@H]6C5)C4)cc3C2=O)C(=O)N1 (stereo partly shown) [Example 156] ?
75 to 85%
